// reported pIC50 for each item listed
test target: ULK1 kinase (Homo sapiens, UniProt O75385, E37A/K38A)
Construct: (residues 1-283; ID NO: 1)
Sequence (O75385 1-283 E37A/K38A): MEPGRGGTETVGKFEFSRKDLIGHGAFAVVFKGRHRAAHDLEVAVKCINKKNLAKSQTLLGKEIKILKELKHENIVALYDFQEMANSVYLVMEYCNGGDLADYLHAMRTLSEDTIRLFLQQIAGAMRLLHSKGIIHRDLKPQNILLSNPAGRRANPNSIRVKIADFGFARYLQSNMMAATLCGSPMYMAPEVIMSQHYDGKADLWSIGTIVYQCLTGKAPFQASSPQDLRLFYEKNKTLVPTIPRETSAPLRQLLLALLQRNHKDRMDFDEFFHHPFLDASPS
assay comment: Biochemical assay for ULK1 (coupled pyruvate kinase/lactate dehydrogenase assay)
run conditions: 1 mM ATP, 0.1 nM ULK1; read-out: ULK1 (inhibition of biochemical activity), IC50
pIC50: −log10 of the molar value.

Solved cases below.
• CCCNC(=O)c1ccc2c(c1)/C(=C(\CC)Nc1cnn(C3CCN(C(C)C)CC3)c1)C(=O)N2 [Example 15] = ≥ 8.00
• CC/C(Nc1cnn(C(C)C)c1)=C1/C(=O)Nc2ccc(C(=O)NCC(F)F)cc21 [Example 112] = 7.00 to 8.00
• CC/C(Nc1cnn(C2CCN(C(C)C)CC2)c1)=C1/C(=O)Nc2ccc(C(=O)NCCC#N)cc21 [Example 26] = ≥ 8.00
• CC/C(Nc1cnc(N2CCN(C)CC2)nc1)=C1/C(=O)Nc2ccc(C(=O)NCC(F)(F)F)cc21 [Example 76] = 6.30 to 7.00
• C/C(Nc1cnn(C2CCN(C(C)C)CC2)c1)=C1/C(=O)Nc2ccc(C(=O)NCC(F)(F)F)cc21 [Example 24] = ≥ 8.00

I'd like to know its pIC50. The molecule in question is CC/C(Nc1cnn(C2CCN(C(C)C)CC2)c1)=C1/C(=O)Nc2ccc(C(=O)NC)cc21 [Example 13] 6.30 to 7.00

I'd like to know its pIC50. The molecule in question is CC/C(Nc1ccc(-c2cn(C)nn2)cc1)=C1/C(=O)Nc2ccc(C(=O)NCC(F)(F)F)cc21 [Example 79] 7.00 to 8.00

====

test target: ULK2 kinase (Homo sapiens, UniProt Q8IYT8)
Construct: (residues 1-306 with N-terminal GST and His tag; ID NO: 2); purchased Signal Chem U02-11G
Sequence (Q8IYT8 with tags, fused parts or gaps): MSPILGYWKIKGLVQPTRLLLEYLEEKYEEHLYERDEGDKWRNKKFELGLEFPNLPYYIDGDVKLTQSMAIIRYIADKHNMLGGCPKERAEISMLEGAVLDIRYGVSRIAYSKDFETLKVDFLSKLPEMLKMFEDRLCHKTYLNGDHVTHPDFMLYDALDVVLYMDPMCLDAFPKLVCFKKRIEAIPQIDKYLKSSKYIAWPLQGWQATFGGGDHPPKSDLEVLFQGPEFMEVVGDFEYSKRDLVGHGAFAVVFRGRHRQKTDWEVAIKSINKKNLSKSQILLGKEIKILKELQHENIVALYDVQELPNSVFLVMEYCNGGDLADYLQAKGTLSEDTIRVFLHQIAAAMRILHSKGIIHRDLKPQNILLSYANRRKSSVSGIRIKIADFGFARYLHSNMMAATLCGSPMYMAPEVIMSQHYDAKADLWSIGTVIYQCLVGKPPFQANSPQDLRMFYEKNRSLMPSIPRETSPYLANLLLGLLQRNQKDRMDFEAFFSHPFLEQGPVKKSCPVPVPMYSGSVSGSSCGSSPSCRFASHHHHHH
assay comment: Biochemical assay for ULK2 (coupled pyruvate kinase/lactate dehydrogenase assay)
run conditions: 1 mM ATP, 1 nM ULK2; read-out: ULK2 (inhibition of biochemical activity), IC50
pIC50: −log10 of the molar value.
endpoint label: pIC50

Solved cases below.
- CC/C(Nc1cnn(C(C)C)c1)=C1/C(=O)Nc2ccc(C(=O)NC(C)C)cc21 [Example 132]: < 6.30
- CC/C(Nc1cnn(C(C)C)c1)=C1/C(=O)Nc2ccc(C(=O)NCC3(C#N)CC3)cc21 [Example 156]: 7.00 to 8.00
- CC/C(Nc1ccc(N2CC3(CN(C)C3)C2)cc1)=C1/C(=O)Nc2ccc(C(=O)NC[C@H]3CCCO3)cc21 [Example 66]: 7.00 to 8.00
- CC/C(Nc1cnn(C(C)C)c1)=C1/C(=O)Nc2ccc(C(=O)N(C)C[C@H]3CCCO3)cc21 [Example 129]: 6.30 to 7.00
- CC/C(Nc1cnn(C(C)C)c1)=C1/C(=O)Nc2ccc(C(=O)NCC(C)(C)OC)cc21 [Example 148]: 6.30 to 7.00

I'd like to know its pIC50. The molecule in question is CC/C(Nc1cnn(CCN(C)C)c1)=C1/C(=O)Nc2ccc(C(=O)NCC(F)(F)F)cc21 [Example 103] 7.00 to 8.00

I'd like to know its pIC50. The molecule in question is CC/C(Nc1cnn(C(C)C)c1)=C1/C(=O)Nc2ccc(C(=O)N[C@H](C)C(F)(F)F)cc21 [Example 119] 7.00 to 8.00

I'd like to know its pIC50. The molecule in question is CC/C(Nc1cnn(C2CCN(C(C)C)CC2)c1)=C1/C(=O)Nc2ccc(C(=O)NCC(C)(C)O)cc21 [Example 28] 7.00 to 8.00

I'd like to know its pIC50. The molecule in question is CC/C(Nc1cnn(C(C)C)c1)=C1/C(=O)Nc2ccc(C(=O)NCC(C)C)cc21 [Example 130] 7.00 to 8.00

I'd like to know its pIC50. The molecule in question is CC/C(Nc1cnn(C(C)C)c1)=C1/C(=O)Nc2ccc(C(=O)N[C@@H](C)C(F)(F)F)cc21 [Example 120] 6.30 to 7.00

I'd like to know its pIC50. The molecule in question is CC/C(Nc1cnn(C2CCN(C(C)C)CC2)c1)=C1/C(=O)Nc2ccc(C(=O)NC[C@H]3CCCO3)cc21 [Example 1] 7.00 to 8.00

I'd like to know its pIC50. The molecule in question is CC/C(Nc1ccc(N2CCN(C(C)C)CC2)cc1)=C1/C(=O)Nc2cc(F)c(C(=O)NCC(F)(F)F)cc21 [Example 100] 6.30 to 7.00

I'd like to know its pIC50. The molecule in question is CC/C(Nc1cnc(N2CCN(C(C)C)CC2)cn1)=C1/C(=O)Nc2ccc(C(=O)NCC(F)(F)F)cc21 [Example 94] 7.00 to 8.00

I'd like to know its pIC50. The molecule in question is CC/C(Nc1cnn(CC)c1)=C1/C(=O)Nc2ccc(C(=O)NCC(F)(F)F)cc21 [Example 107] 7.00 to 8.00
